Just for reference, patent US10272055B2 is where these values come from.

Test system: MCF-7 cell line
Test: MTT growth assay, MCF-7 line
Type: cell-based
Conditions: Homo sapiens, MCF7, 24 h, MTT assay at 24 hours, 10% FBS; read-out: IC50, MCF-7 growth
Method: The growth of the MCF-7 line was measured by MTT assay at 24 hours. Cells were plated in complete media in the presence of serum (10% FBS) and cultured at 37° C. with 5% CO2 and treated with the biguanide or DMSO vehicle. Growth was measured at 24 hours by MTT assay. Cells were plated in complete media in the presence of serum (10% FBS) and cultured at 37° C. with 5% CO2 and treated with HBB or DMSO vehicle. Growth was measured at 24 hours by MTT assay.
metric.name: pIC50
API: returns pIC50 as number; meaning -log10 of concentration in mol/L.

- [H]/N=C(/N)N/C(=N/[H])NCCc1ccccc1 [phenformin, reference compound]: 2.10
- CCCCCCNC(=N)NC(=N)NCc1ccccc1.Cl [HBB-HCl]: 4.70

Could you now consider this next compound?
Ask | Give the measured pIC50 of `CCCCCCNC(=N)NC(=N)NCc1ccncc1` .
Reply | 4.40

====

Tested on: MCF-7 cell line
Assay: MTT growth assay, MCF-7 line
Assay type: cell-based
Details: Homo sapiens, MCF7, 24 h, read-out: IC50, MCF-7 growth
metric.name: IC50

Ask | Find the recorded IC50 belonging to CCCCNC(=N)NC(=N)N [buformin] and report it.
Reply | > 10 mM

====

Assay: Tolerability in xenograft mice (MTD, weight)
Settings: nude, mouse, in vivo; ip daily; read-out: maximum tolerated dose (MTD)
From the text: […]. (* indicates P<0.05). Error bars are SEM. […] The dose limiting toxicity was weight loss. At the MTD there was a well-tolerated 4% reduction of weight at 42 days (P<0.0001; data not shown). […].
metric.name: MTD at 42 days
Lab note: write values as number then unit, every time.

Ask | Could you tell me which MTD at 42 days is on file for CCCCCCNC(=N)NC(=N)NCc1ccccc1 [HBB, N1-hexyl-N5-benzyl biguanide] ?
Reply | 4 mg/kg
